Record: compiled Ki on Histamine H3 receptor (Rattus norvegicus) from multiple reports.
Sequence (Q9QYN8 whole entry): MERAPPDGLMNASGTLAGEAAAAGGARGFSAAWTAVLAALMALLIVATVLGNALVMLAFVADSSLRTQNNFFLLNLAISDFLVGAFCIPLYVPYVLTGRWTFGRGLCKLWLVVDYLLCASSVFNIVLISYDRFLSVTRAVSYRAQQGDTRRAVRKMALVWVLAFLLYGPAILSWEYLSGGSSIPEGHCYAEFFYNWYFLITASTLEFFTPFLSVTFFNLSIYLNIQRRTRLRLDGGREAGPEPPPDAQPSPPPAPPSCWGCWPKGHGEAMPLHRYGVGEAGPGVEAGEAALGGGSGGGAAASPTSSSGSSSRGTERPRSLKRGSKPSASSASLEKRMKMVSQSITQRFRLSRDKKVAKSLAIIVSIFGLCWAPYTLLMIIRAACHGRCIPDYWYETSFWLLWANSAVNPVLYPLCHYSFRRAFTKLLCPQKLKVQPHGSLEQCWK
Observed property: Ki (nM)

| Given smiles | Ki / nM |
| --- | --- |
| Ic1ccc(OCCCc2cnc[nH]2)cc1 | 19.9 |
| CN(C)CCCNc1c2c(nc3c1CCCC3)CCCCC2 | 158 |

(P) N[C@H](COCc1ccccc1)Cc1c[nH]cn1
(Q) N[C@H](CO)Cc1c[nH]cn1
Ki comparison. Which is larger, P or Q ? The response must carry the label of the picked entry.
Q
(Q: 251 nM, P: 50.1 nM)

(A) COc1ccc(CCC(=O)OCCCc2cnc[nH]2)cc1I
(B) c1ccc(COCCCc2c[nH]cn2)cc1
(C) N[C@@H](COCC1CCCCC1)Cc1c[nH]cn1
(D) Ic1cccc(OCCCc2cnc[nH]2)c1
(E) Ic1ccc(COCCCc2c[nH]cn2)cc1
Order these by Ki, descending, and give the full ranking. Reply: labels, ordered per the request.
A, C, D, B, E
(A: 251 nM, C: 158 nM, D: 16 nM, B: 3.16 nM, E: 0.126 nM)

(1) N[C@@H](COCc1ccccc1)Cc1c[nH]cn1
(2) Nc1c(I)cc(C(=O)OCCCc2cnc[nH]2)cc1I
// compare: 1 vs 2 , metric Ki, want the smaller Mark your answer with the label of the selected entry.
2

(a) N[C@@H](COCc1ccc(Br)cc1)Cc1c[nH]cn1
(b) N[C@H](COCC1CCCCC1)Cc1c[nH]cn1
Given the listed items, does a or b have the lesser reported Ki? Lab log: write the label of the selected item as the result.
b
(b: 12.6 nM, a: 199 nM)
